- System: MDA-MB-468 breast
- test_description: NCI tumour cell line growth inhibition, 48 h; in the data active = GI50 below about 0.43 µM; inactive = the rest
Classes to choose from: active, inactive

Solved entries (count: 5):
molecule: CCCCCC(=O)O[C@]1(C(C)=O)CCC2C3CCC4=CC(=O)CC[C@]4(C)C3CC[C@@]21C (some centres not stated)
label_value: inactive

molecule: COc1ccccc1C1c2cc3c(cc2OC2(OC)COC(=O)C12)OCO3 (configuration not stated)
label_value: inactive

molecule: O=C1c2cc3c(cc2-c2c1c1ccc(Cl)cc1c(=O)n2C[C@H](O)CO)OCO3
label_value: active

molecule: CC(C)[C@@H]1CC[C@]2(CO2)[C@@H]2C(=O)OCC(C(=O)O)=C[C@H]21
label_value: inactive

molecule: Cc1cc(=O)oc2cc(OCCCOc3ccc(/C=C/C(=O)Nc4ccccc4N)cc3)ccc12
label_value: inactive

What is the recorded call for this molecule in the test? CCCCS(=O)c1sc2nc(-c3cccs3)cc(-c3ccccc3)c2c1N (configuration not stated)
inactive

Which outcome was entered for the molecule CCNC(=O)N1CCc2cc(OC)c(OCCc3ccc(OC)cc3)cc2C1c1ccc(Cl)cc1C (configuration not stated) in this test?
inactive
